What pKi was measured for each of the following?
To interpret pKi, take it as minus log10 of a concentration measured in moles per litre.

Qu. Write down the reported pKi (system: D(3) dopamine receptor (Homo sapiens, UniProt P35462)) of CCCN(CCc1ccccc1)C1CCc2ccc(O)cc2C1 (stereo unspecified)
Sequence (P35462 whole entry): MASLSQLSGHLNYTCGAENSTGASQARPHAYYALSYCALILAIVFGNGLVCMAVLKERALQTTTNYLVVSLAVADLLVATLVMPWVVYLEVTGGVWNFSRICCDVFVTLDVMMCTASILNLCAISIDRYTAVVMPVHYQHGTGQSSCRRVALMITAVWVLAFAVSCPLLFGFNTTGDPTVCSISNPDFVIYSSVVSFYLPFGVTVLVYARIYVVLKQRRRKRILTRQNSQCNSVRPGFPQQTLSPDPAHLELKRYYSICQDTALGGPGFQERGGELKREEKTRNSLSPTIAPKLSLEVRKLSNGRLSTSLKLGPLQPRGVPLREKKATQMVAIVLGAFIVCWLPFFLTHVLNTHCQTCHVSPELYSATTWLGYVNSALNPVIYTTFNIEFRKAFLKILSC
Ans. 8.70

Qu. Write down the reported pKi (system: D(3) dopamine receptor (Homo sapiens, UniProt P35462)) of COc1ccc2c(c1)CC(N)CC2 (stereo unspecified)
Ans. 5.65

Qu. Write down the reported pKi (system: D(3) dopamine receptor (Homo sapiens, UniProt P35462)) of NC1CCc2c(O)cccc2C1 (stereo unspecified)
Ans. 6.46

Qu. Write down the reported pKi (system: D(3) dopamine receptor (Homo sapiens, UniProt P35462)) of CNC1CCc2c(cccc2OC)C1 (stereo unspecified)
Ans. 6.39

Qu. Write down the reported pKi (system: D(3) dopamine receptor (Homo sapiens, UniProt P35462)) of COc1cccc2c1CCC(N(C)C)C2 (stereo unspecified)
Ans. 6.44

Qu. Write down the reported pKi (system: D(3) dopamine receptor (Homo sapiens, UniProt P35462)) of CCCNC1CCc2c(cccc2OC)C1 (stereo unspecified)
Ans. 6.87
